Assay: Singlet oxygen generation (DPBF absorption, 520 nm laser)
Type: physicochemical
Settings: DPBF 40 μM in EtOH, 520 nm laser 0.3 mW
Item-by-item account of Singlet oxygen quantum yield (%)
Give the value, in units of %, as a plain number.

// below: answered compounds
NC(CNc1ccc([N+](=O)[O-])c2n[se]nc12)C(=O)O (centres unmarked)	10
CCN(CC)c1ccc([N+](=O)[O-])c2n[se]nc12	3

Could you tell me which Singlet oxygen quantum yield (%) is on file for `O=[N+]([O-])c1ccc(N[C@@H]2[C@@H](O)[C@H](O)[C@@H](CO)O[C@H]2O)c2nsnc12` ?
24

What do you get for `CCN(CC)c1cc(I)c([N+](=O)[O-])c2n[se]nc12` ?
5
